Measured values drawn from patent US20230374151A1 for this set.

target: T1, TnMUC1 peptide (fully glycosylated), biotinylated; experiment: SPR (Biacore T200): biotinylated TnMUC1 peptide batch 65-1 captured on CAP chip, scFv as analyte, 1:1 fit, average
T1 construct: Two batches (36-2 and 65-1) of the same peptide; also called 36-2; 7-36-2
measurement label: koff (s⁻¹)
Your answer should be a plain number; it is taken to be in s⁻¹.

- binder: "humanised anti-TnMUC1 scFv protein 13P16 (97A), L2-H3 (scFv, Supernatant of construct 6D16 in the Octet assay; purified 13P16 elsewhere. scFv of CAR MB024; also called 6D16) scFv: DIVMTQSPDSLAVSLGERATINCKSSQSLLNSGDQKNYLTWYQQKPGQPPKLLIFWASTRESGVPDRFSGSGSGTDFTLTISSLQAEDVAVYYCQNDYSYPLTFGQGTKLEIKGGGGSGGGGSGGGGSGGGGSQVQLVQSGAEVKKPGSSVKVSCKASGYTFTDHAIHWVRQAPGQGLEWMGHFSPGNTDIKYNDKFKGRVTITADKSTSTAYMELSSLRSEDTAVYYCKTSTFFFDYWGQGTTVTVSSAAAHHHHHH"
  reading unit: "s⁻¹"
  koff: 0.00633
- binder: "humanised anti-TnMUC1 scFv protein 11P6 (89A), L0-H5 (scFv, Supernatant of construct 6D6 in the Octet assay; purified 11P6 elsewhere; also called 6D6) scFv: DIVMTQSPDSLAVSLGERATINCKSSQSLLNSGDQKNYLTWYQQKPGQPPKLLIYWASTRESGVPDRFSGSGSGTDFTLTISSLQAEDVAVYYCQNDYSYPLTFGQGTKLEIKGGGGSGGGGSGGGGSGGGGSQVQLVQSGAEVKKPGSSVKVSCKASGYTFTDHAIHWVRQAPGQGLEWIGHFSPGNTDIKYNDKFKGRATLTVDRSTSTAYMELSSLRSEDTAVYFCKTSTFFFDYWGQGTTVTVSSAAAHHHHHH"
  reading unit: "s⁻¹"
  koff: 0.00136
- binder: "humanised anti-TnMUC1 scFv protein 16P4 (82A), L0-H3 (scFv, Supernatant of construct 6D4 in the Octet assay; purified 16P4 elsewhere. scFv of CAR MB021; also called 6D4) scFv: DIVMTQSPDSLAVSLGERATINCKSSQSLLNSGDQKNYLTWYQQKPGQPPKLLIYWASTRESGVPDRFSGSGSGTDFTLTISSLQAEDVAVYYCQNDYSYPLTFGQGTKLEIKGGGGSGGGGSGGGGSGGGGSQVQLVQSGAEVKKPGSSVKVSCKASGYTFTDHAIHWVRQAPGQGLEWMGHFSPGNTDIKYNDKFKGRVTITADKSTSTAYMELSSLRSEDTAVYYCKTSTFFFDYWGQGTTVTVSSAAAHHHHHH"
  reading unit: "s⁻¹"
  koff: 0.00698

Using known records, supply koff for humanised anti-TnMUC1 scFv protein 13P18 (19A), L2-H5 (scFv, Supernatant of construct 6D18 in the Octet assay; purified 13P18 elsewhere. scFv of CAR MB025; also called 6D18) scFv: DIVMTQSPDSLAVSLGERATINCKSSQSLLNSGDQKNYLTWYQQKPGQPPKLLIFWASTRESGVPDRFSGSGSGTDFTLTISSLQAEDVAVYYCQNDYSYPLTFGQGTKLEIKGGGGSGGGGSGGGGSGGGGSQVQLVQSGAEVKKPGSSVKVSCKASGYTFTDHAIHWVRQAPGQGLEWIGHFSPGNTDIKYNDKFKGRATLTVDRSTSTAYMELSSLRSEDTAVYFCKTSTFFFDYWGQGTTVTVSSAAAHHHHHH
0.00127
